This section presents molecules with their documented IC50 values.
Biological target: UniProtKB O75116

{"molecule": "COc1cc(-c2cn[nH]c2)ccc1-n1c(C)nn(C(C)c2ccccc2)c1=O (centres unmarked) [Example 75]", "IC50": "250 to 2000 nM"}
{"molecule": "COc1cccc(C(C)n2c(C)nn(-c3ccc(-c4cn[nH]c4)cc3)c2=O)c1 (single isomer, unassigned) [Example 119]", "IC50": "5 to 50 nM"}
{"molecule": "Cc1nn(Cc2ccccc2)c(=O)n1-c1ccc(-c2cn[nH]c2)cc1 [Example 59]", "IC50": "250 to 2000 nM"}
{"molecule": "COc1cc(-n2ncn(Cc3ccccc3F)c2=O)ccc1-c1cn[nH]c1 [Example 31]", "IC50": "5 to 50 nM"}
{"molecule": "COc1cccc(Cn2ncn(-c3ccc(-c4cn[nH]c4)cc3OC)c2=O)c1 [Example 11]", "IC50": "50 to 250 nM"}

**Query** Identify IC50 associated with the molecule CC(O)c1nn(-c2ccc(-c3cn[nH]c3)cc2)c(=O)n1Cc1ccccc1 (single isomer, unassigned) [Example 141]
**Result** 5 to 50 nM

**Query** Provide measured IC50 value, entry: O=c1n(Cc2c(F)cccc2F)cnn1-c1ccc(-c2cn[nH]c2)cc1 [Example 33]
**Result** 5 to 50 nM

**Query** Retrieve IC50 measured for COc1cc(Cn2c(CO)nn(-c3ccc(-c4cn[nH]c4)cc3)c2=O)cc(OC)c1 [Example 127] and print it.
**Result** 50 to 250 nM

---

Biological target: ROCK2 (Homo sapiens (Human), UniProt O75116)
Sequence (O75116 whole entry, species assumed): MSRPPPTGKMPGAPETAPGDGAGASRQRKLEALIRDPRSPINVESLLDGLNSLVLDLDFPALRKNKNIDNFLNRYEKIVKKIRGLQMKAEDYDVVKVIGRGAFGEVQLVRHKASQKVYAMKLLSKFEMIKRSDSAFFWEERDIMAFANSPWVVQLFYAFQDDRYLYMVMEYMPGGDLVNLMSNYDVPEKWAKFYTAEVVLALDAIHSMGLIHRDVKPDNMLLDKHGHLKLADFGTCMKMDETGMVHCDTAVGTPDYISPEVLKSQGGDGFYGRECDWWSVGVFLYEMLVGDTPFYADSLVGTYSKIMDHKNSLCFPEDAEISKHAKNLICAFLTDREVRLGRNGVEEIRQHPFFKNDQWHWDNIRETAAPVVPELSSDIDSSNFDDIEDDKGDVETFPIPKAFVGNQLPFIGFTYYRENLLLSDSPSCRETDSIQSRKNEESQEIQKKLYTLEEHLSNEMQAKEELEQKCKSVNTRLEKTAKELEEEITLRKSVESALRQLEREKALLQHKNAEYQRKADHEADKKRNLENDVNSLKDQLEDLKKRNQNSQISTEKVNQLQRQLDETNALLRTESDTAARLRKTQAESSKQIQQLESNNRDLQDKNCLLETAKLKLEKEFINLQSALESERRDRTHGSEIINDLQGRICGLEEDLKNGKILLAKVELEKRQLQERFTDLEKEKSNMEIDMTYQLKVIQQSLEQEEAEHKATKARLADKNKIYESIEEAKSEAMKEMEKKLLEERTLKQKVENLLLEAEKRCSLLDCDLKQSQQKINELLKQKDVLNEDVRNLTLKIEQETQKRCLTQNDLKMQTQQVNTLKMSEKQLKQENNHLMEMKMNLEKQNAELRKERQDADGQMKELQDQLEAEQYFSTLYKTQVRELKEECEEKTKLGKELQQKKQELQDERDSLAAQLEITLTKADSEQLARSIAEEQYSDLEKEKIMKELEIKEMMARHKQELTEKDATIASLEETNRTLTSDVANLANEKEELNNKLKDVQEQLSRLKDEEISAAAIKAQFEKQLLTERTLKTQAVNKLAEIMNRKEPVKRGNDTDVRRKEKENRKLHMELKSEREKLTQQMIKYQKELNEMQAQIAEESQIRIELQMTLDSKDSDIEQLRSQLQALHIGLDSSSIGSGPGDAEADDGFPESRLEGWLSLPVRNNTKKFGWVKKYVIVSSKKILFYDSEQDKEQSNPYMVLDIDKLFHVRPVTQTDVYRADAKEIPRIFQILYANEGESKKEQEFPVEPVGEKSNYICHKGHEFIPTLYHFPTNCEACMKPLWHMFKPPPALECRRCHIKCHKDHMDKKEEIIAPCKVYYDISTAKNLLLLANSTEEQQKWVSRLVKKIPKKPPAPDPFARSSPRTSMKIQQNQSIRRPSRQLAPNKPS
pIC50: −log10 of the molar value.
In this section, each of the compounds is paired with its reported pIC50.

Some solved entries appear below for comparison.
{"compound": "Cc1nn(Cc2cccc(F)c2)c(=O)n1-c1ccc(-c2cn[nH]c2)cc1", "pIC50": "5.70 to 6.60"}
{"compound": "COc1cc(-n2c(C)nn(Cc3cc(F)ccc3F)c2=O)ccc1-c1cn[nH]c1", "pIC50": "5.70 to 6.60"}
{"compound": "COc1cc(-n2nnn(Cc3ccccc3F)c2=O)ccc1-c1cn[nH]c1", "pIC50": "6.60 to 7.30"}
{"compound": "COc1cccc(Cn2c(C)nn(-c3ccc(-c4ccnc(N)n4)cc3)c2=O)c1", "pIC50": "7.30 to 8.30"}
{"compound": "O=c1n(Cc2ccccc2F)cnn1-c1ccc(-c2cn[nH]c2)cc1", "pIC50": "7.30 to 8.30"}
{"compound": "O=c1n(Cc2ccccc2Cl)nnn1-c1ccc(-c2cn[nH]c2)cc1", "pIC50": "6.60 to 7.30"}
{"compound": "O=c1n(-c2ccc(-c3cn[nH]c3)cc2)cnn1Cc1ccccc1", "pIC50": "6.60 to 7.30"}
{"compound": "COc1cc(-n2nnn(Cc3ccc(F)cc3)c2=O)ccc1-c1cn[nH]c1", "pIC50": "5.70 to 6.60"}
{"compound": "COc1cc(-n2c(C)nn(C(C)c3ccccc3)c2=O)ccc1-c1cn[nH]c1 (stereo not drawn)", "pIC50": "5.70 to 6.60"}
{"compound": "O=c1n(-c2ccc(-c3cn[nH]c3)cc2)nc(CO)n1Cc1cc(F)ccc1F", "pIC50": "7.30 to 8.30"}

**Query** System ROCK2 (Homo sapiens (Human), UniProt O75116). Read-out pIC50. Item COc1cc(F)cc(Cn2c(CNC(C)CO)nn(-c3ccc(-c4cn[nH]c4)cc3)c2=O)c1 (stereo not drawn) . Report value.
**Result** 7.30 to 8.30

**Query** Give pIC50; test system ROCK2 (Homo sapiens (Human), UniProt O75116); compound COc1cccc(Cn2c(CO)nn(-c3ccc(-c4cn[nH]c4)cc3)c2=O)c1F
**Result** 5.70 to 6.60

**Query** Look up and report measured pIC50 (ROCK2 (Homo sapiens (Human), UniProt O75116)) for the following compound: COc1cccc(Cn2c(CO)nn(-c3ccc(-c4cn[nH]c4)cc3)c2=O)c1
**Result** > 8.30

**Query** Supply pIC50 measured with ROCK2 (Homo sapiens (Human), UniProt O75116) for COc1cc(-n2nnn(Cc3ccccc3)c2=O)ccc1-c1cn[nH]c1 .
**Result** 6.60 to 7.30

**Query** Return reported pIC50 for target or system ROCK2 (Homo sapiens (Human), UniProt O75116), item CC(C)(O)c1nn(-c2ccc(-c3cn[nH]c3)cc2)c(=O)n1Cc1cc(F)cc(F)c1 .
**Result** 7.30 to 8.30
